System: Raf-1^gof intestinal tumors
Experiment: Luciferase screen of FDA-approved (NCI) drugs in 96-well plates, flies with Raf-1^gof intestinal tumors
Assay type: in vivo, Drosophila
Details: six-day protocol: single dose for three days, then another dose for three more days
Where a name gives a salt, the structure may show the parent alone.
Please respond with Condition met when measured Day 6 Fold is strictly beneath 0.9 fold, and with Condition not met in all other cases.

[[record]]
compound = "Cc1ccc(NC(=O)c2ccc(CN3CCN(C)CC3)cc2)cc1Nc1nccc(-c2cccnc2)n1"
class = "Condition met"


Does `CC(C)C[C@H](NC(=O)[C@H](Cc1ccccc1)NC(=O)c1cnccn1)B(O)O` have Day 6 Fold strictly under 0.9 fold? Condition not met

Day 6 Fold strictly < 0.9 fold for this compound? `C=C1C[C@@H]2[C@H](CC[C@]3(C)C(=O)CC[C@@H]23)[C@@]2(C)C=CC(=O)C=C12` Condition met

I wonder whether `CNNCc1ccc(C(=O)NC(C)C)cc1` has Day 6 Fold below 0.9 fold. Can you tell? Condition met

Criterion: Day 6 Fold strictly below 0.9 fold. Is it met by Nc1ccn([C@@H]2O[C@H](CO)[C@@H](O)[C@@H]2O)c(=O)n1 [Cytarabine HCl] ? Condition not met

Is 0.9 fold strictly greater than the compound's reported Day 6 Fold? compound: `O=c1[nH]c(=O)n([C@H]2C[C@H](O)[C@@H](CO)O2)cc1F` Condition met

API: query returns whether the compound falls strictly under 0.9 fold in Day 6 Fold. Query: `Nc1nc(Cl)nc2c1ncn2[C@@H]1O[C@H](CO)[C@@H](O)[C@@H]1F` Condition met

Would you kindly verify if Day 6 Fold of `CO[C@H]1C[C@@H]2CC[C@@H](C)[C@@](O)(O2)C(=O)C(=O)N2CCCC[C@H]2C(=O)O[C@H]([C@H](C)C[C@@H]2CC[C@@H](O)[C@H](OC)C2)CC(=O)[C@H](C)/C=C(\C)[C@@H](O)[C@@H](OC)C(=O)[C@H](C)C[C@H](C)/C=C/C=C/C=C/1C` is strictly less than 0.9 fold? Condition met

====

Tested on: Raf-1^gof intestinal tumors
Conditions: screen of 480 ICCB compounds in vials; compounds fed to flies with one-day old Raf-1^gof tumors, assessed three days later; esg-Gal4 luciferase
Note that class boundaries on Log2 (fold) (luciferase activity, log2 of the fold difference relative to DMSO controls) are c1 (below -0.4), c2 (-0.4 to below -0.3), c3 (-0.3 or more)

Class label required: `CCCCCCCCCCC1=C(C)C(=O)C(OC)=C(OC)C1=O` c1

Assign a bin to CCCCCC(O)CCCC(=O)O (stereo not drawn) [5-HYDROXYDECANOATE] c2

For `O=C(O)c1ccc(/C2=C3\C=CC(=N3)/C(c3ccc(C(=O)O)cc3)=c3/cc/c4[n]3[Mn]([Cl])[n]3c2ccc3/C(c2ccc(C(=O)O)cc2)=C2/C=CC(=N2)\C=4c2ccc(C(=O)O)cc2)cc1` , which Log2 (fold) (luciferase activity, log2 of the fold difference relative to DMSO controls) bin applies? c3

Using the reported Log2 (fold) (luciferase activity, log2 of the fold difference relative to DMSO controls), which band applies to `C=C1[C@@H](C)[C@H]2[C@H](Cc3ccccc3)NC(=O)[C@]23[C@H](OC(C)=O)/C=C/[C@@](C)(O)C(=O)[C@@H](C)C/C=C/[C@H]3[C@@H]1O` ? c3

Hi there! Could you help me figure out the category for Clc1ccc(C2CC3CCC2N3)cn1 (racemic) [epibatidine (+/−)] please? c1

Entry source: patent US20130096067A1
